Numbers sourced from ChEMBL document CHEMBL3351732.

# Assay Details: Cmax in cynomolgus monkey at 5 mg/kg, po
# Format: ADME, organism-based, Macaca fascicularis
# Set-up: dose 5 mg/kg, route oral
# Measurement Context: in vivo
Quantity Measured: Cmax (µg/mL)
Express it in µg/mL; write the number only.

// Cmax lookup, key: COC(=O)N[C@H](C(=O)N1CCC[C@H]1c1ncc(-c2ccc3c(c2)Oc2ccc(-c4cnc([C@@H]5CCCN5C(=O)[C@@H](NC(=O)OC)C(C)C)[nH]4)cc2C3(C)C)[nH]1)C(C)C
0.486

----------
# Assay Details: Half life in beagle dog at 1 mg/kg, iv
# Format: ADME, organism-based, Canis lupus familiaris
# Set-up: dose 1 mg/kg, route intravenous
# Measurement Context: in vivo
Quantity Measured: half-life (h)
Express it in h; write the number only.

// half-life lookup, key: COC(=O)N[C@H](C(=O)N1CCC[C@H]1c1ncc(-c2ccc3c(c2)Oc2ccc(-c4cnc([C@@H]5CCCN5C(=O)[C@@H](NC(=O)OC)C(C)C)[nH]4)cc2C3(C)C)[nH]1)C(C)C
3.77

----------
# Assay Details: Oral bioavailability in Sprague-Dawley rat at 5 mg/kg
# Format: ADME, organism-based
# Measurement Context: in vivo
Quantity Measured: bioavailability (%)
Express it in %; write the number only.

# count of solved cases: 3
Molecule	Quantity Measured	Assay Result
COC(=O)N[C@H](C(=O)N1CCC[C@H]1c1ncc(-c2ccc3c(c2)Oc2ccc(-c4cnc([C@@H]5CCCN5C(=O)[C@@H](NC(=O)OC)C(C)C)[nH]4)cc2O3)[nH]1)C(C)C	bioavailability	20.1
COC(=O)N[C@H](C(=O)N1CCC[C@H]1c1ncc(-c2ccc3c(c2)Cc2ccc(-c4cnc([C@@H]5CCCN5C(=O)[C@@H](NC(=O)OC)C(C)C)[nH]4)cc2O3)[nH]1)C(C)C	bioavailability	41.1
COC(=O)N[C@H](C(=O)N1CCC[C@H]1c1ncc(-c2ccc3c(=O)c4cc(-c5cnc([C@@H]6CCCN6C(=O)[C@@H](NC(=O)OC)C(C)C)[nH]5)ccc4oc3c2)[nH]1)C(C)C	bioavailability	6.7

As a next step, examine the molecule that follows.
// bioavailability lookup, key: COC(=O)N[C@H](C(=O)N1CCC[C@H]1c1ncc(-c2ccc3c(c2)Oc2ccc(-c4cnc([C@@H]5CCCN5C(=O)[C@@H](NC(=O)OC)C(C)C)[nH]4)cc2C3(C)C)[nH]1)C(C)C
112

----------
# Assay Details: Volume of distribution at steady state in Sprague-Dawley rat at 1 mg/kg, iv
# Assay type: ADME, organism-based
# Parameters: dose 1 mg/kg, route intravenous
# Measurement Context: in vivo, read-out: Vdss
Below, each entry is listed with its recorded Vd.
Express it in L/kg; write the number only.

# count of solved cases: 3
Molecule	Quantity Measured	Assay Result
COC(=O)N[C@H](C(=O)N1CCC[C@H]1c1ncc(-c2ccc3c(c2)Oc2ccc(-c4cnc([C@@H]5CCCN5C(=O)[C@@H](NC(=O)OC)C(C)C)[nH]4)cc2C3(C)C)[nH]1)C(C)C	Vd	1.8
COC(=O)N[C@H](C(=O)N1CCC[C@H]1c1ncc(-c2ccc3c(c2)Oc2ccc(-c4cnc([C@@H]5CCCN5C(=O)[C@@H](NC(=O)OC)C(C)C)[nH]4)cc2O3)[nH]1)C(C)C	Vd	1.18
COC(=O)N[C@H](C(=O)N1CCC[C@H]1c1ncc(-c2ccc3c(c2)Cc2ccc(-c4cnc([C@@H]5CCCN5C(=O)[C@@H](NC(=O)OC)C(C)C)[nH]4)cc2O3)[nH]1)C(C)C	Vd	1.32

As a next step, examine the compound that follows.
// Vd lookup, key: COC(=O)N[C@H](C(=O)N1CCC[C@H]1c1ncc(-c2ccc3c(=O)c4cc(-c5cnc([C@@H]6CCCN6C(=O)[C@@H](NC(=O)OC)C(C)C)[nH]5)ccc4oc3c2)[nH]1)C(C)C
3.57

----------
Below, each entry is listed with its recorded half-life.
# Assay Details: Half life in Sprague-Dawley rat at 1 mg/kg, iv
# Assay type: ADME, organism-based
# Design: dose 1 mg/kg, route intravenous
# Measurement Context: in vivo
Express it in h; write the number only.

# count of solved cases: 3
Molecule	U	Assay Result
COC(=O)N[C@H](C(=O)N1CCC[C@H]1c1ncc(-c2ccc3c(c2)Oc2ccc(-c4cnc([C@@H]5CCCN5C(=O)[C@@H](NC(=O)OC)C(C)C)[nH]4)cc2O3)[nH]1)C(C)C	h	2.53
COC(=O)N[C@H](C(=O)N1CCC[C@H]1c1ncc(-c2ccc3c(c2)Cc2ccc(-c4cnc([C@@H]5CCCN5C(=O)[C@@H](NC(=O)OC)C(C)C)[nH]4)cc2O3)[nH]1)C(C)C	h	1.33
COC(=O)N[C@H](C(=O)N1CCC[C@H]1c1ncc(-c2ccc3c(c2)Oc2ccc(-c4cnc([C@@H]5CCCN5C(=O)[C@@H](NC(=O)OC)C(C)C)[nH]4)cc2C3(C)C)[nH]1)C(C)C	h	1.41

// half-life lookup, key: COC(=O)N[C@H](C(=O)N1CCC[C@H]1c1ncc(-c2ccc3c(=O)c4cc(-c5cnc([C@@H]6CCCN6C(=O)[C@@H](NC(=O)OC)C(C)C)[nH]5)ccc4oc3c2)[nH]1)C(C)C
0.92

----------
# Tested on: Hepatitis C virus
# Assay Details: Antiviral activity against HCV genotype 6a infected in human HuH7 cells by luciferase reporter gene assay
# Assay type: functional, cell-based, Hepacivirus hominis
# Measurement Context: Huh-7
Below, each entry is listed with its recorded EC50.
Hi, when you answer, please include the unit after the number. Thanks!

Compound	Experimental System	EC50
COC(=O)N[C@H](C(=O)N1CCC[C@H]1c1ncc(-c2ccc(-c3ccc(-c4cnc([C@@H]5CCCN5C(=O)[C@@H](NC(=O)OC)C(C)C)[nH]4)cc3)cc2)[nH]1)C(C)C [DACLATASVIR]	Hepatitis C virus	0.45 nM

As a next step, examine the compound that follows.
// EC50 lookup, key: COC(=O)N[C@H](C(=O)N1CCC[C@H]1c1ncc(-c2ccc3c(c2)Oc2ccc(-c4cnc([C@@H]5CCCN5C(=O)[C@@H](NC(=O)OC)C(C)C)[nH]4)cc2C3(C)C)[nH]1)C(C)C
0.062 nM

----------
# Assay Details: Tmax in beagle dog at 250 mg/kg, po
# Assay type: ADME, organism-based, Canis lupus familiaris
# Design: dose 250 mg/kg, route oral
# Measurement Context: in vivo
Quantity Measured: Tmax (h)
Express it in h; write the number only.

// Tmax lookup, key: COC(=O)N[C@H](C(=O)N1CCC[C@H]1c1ncc(-c2ccc3c(c2)Oc2ccc(-c4cnc([C@@H]5CCCN5C(=O)[C@@H](NC(=O)OC)C(C)C)[nH]4)cc2C3(C)C)[nH]1)C(C)C
5

----------
# Assay Details: AUC(last) in cynomolgus monkey at 250 mg/kg, po
# Format: ADME, organism-based, Macaca fascicularis
# Set-up: time 0 - last, dose 250 mg/kg, route oral
# Measurement Context: plasma
Quantity Measured: AUC(0-t)
Hi, when you answer, please include the unit after the number. Thanks!

// AUC(0-t) lookup, key: COC(=O)N[C@H](C(=O)N1CCC[C@H]1c1ncc(-c2ccc3c(c2)Oc2ccc(-c4cnc([C@@H]5CCCN5C(=O)[C@@H](NC(=O)OC)C(C)C)[nH]4)cc2C3(C)C)[nH]1)C(C)C
46600 ng·h/mL

----------
# Assay Details: Tmax in Sprague-Dawley rat at 75 mg/kg, po
# Format: ADME, organism-based
# Design: dose 75 mg/kg, route oral
# Measurement Context: in vivo
Quantity Measured: Tmax (h)
Express it in h; write the number only.

// Tmax lookup, key: COC(=O)N[C@H](C(=O)N1CCC[C@H]1c1ncc(-c2ccc3c(c2)Oc2ccc(-c4cnc([C@@H]5CCCN5C(=O)[C@@H](NC(=O)OC)C(C)C)[nH]4)cc2C3(C)C)[nH]1)C(C)C
4

----------
# Assay Details: AUC(last) in Sprague-Dawley rat at 250 mg/kg, po
# Format: ADME, organism-based
# Design: time 0 - last, dose 250 mg/kg, route oral
# Measurement Context: plasma
Quantity Measured: AUC(0-t) (µg·h/mL)
Express it in µg·h/mL; write the number only.

// AUC(0-t) lookup, key: COC(=O)N[C@H](C(=O)N1CCC[C@H]1c1ncc(-c2ccc3c(c2)Oc2ccc(-c4cnc([C@@H]5CCCN5C(=O)[C@@H](NC(=O)OC)C(C)C)[nH]4)cc2C3(C)C)[nH]1)C(C)C
187

----------
# Assay Details: Cmax in Sprague-Dawley rat at 5 mg/kg, po formulated with 5%MC, 95% saline
# Assay type: ADME, organism-based
# Set-up: dose 5 mg/kg, route oral
# Measurement Context: in vivo
Quantity Measured: Cmax (ng/mL)
Express it in ng/mL; write the number only.

// Cmax lookup, key: COC(=O)N[C@H](C(=O)N1CCC[C@H]1c1ncc(-c2ccc3c(c2)Oc2ccc(-c4cnc([C@@H]5CCCN5C(=O)[C@@H](NC(=O)OC)C(C)C)[nH]4)cc2C3(C)C)[nH]1)C(C)C
761
